# EXPERIMENTAL SYSTEM: T1, Met extracellular domain fragment (residues 25-567, sema domain and cysteine-rich domain) with C-terminal … (UniProt P08581 25-307; P08581 308-567)
# T1 construct: also called 6his-Met; Met sema domain
# ASSAY NOTES: SPR, MET567 amine-coupled to a CM5 chip, ligand in flow
// reported pKd for each item listed
// field semantics: pKd = negative decimal log of concentration (mol/L)

Recorded results for 2 binders are shown here.
{"BINDER": "NK1 K1 mutant K1D (V140A:I142A), P. pastoris (ligand) YAEGQRKRRNTIHEFKKSAKTTLIKIDPALKIKTKKVNTADQCANRCTRNKGLPFTCKAFVFDKARKQCLWFPFNSMSSGVKKEFGHEFDLYENKDYIRNCIIGKGRSYKGTASATKSGIKCQPWSSMIPHEHSFLPSSYRGKDLQENYCRNPRGEEGGPWCFTSNPEVRYEVCDIPQCSEV", "VALUE REPORTED": 6.80}
{"BINDER": "NK1 linker mutant LE (N127A), P. pastoris (ligand) YAEGQRKRRNTIHEFKKSAKTTLIKIDPALKIKTKKVNTADQCANRCTRNKGLPFTCKAFVFDKARKQCLWFPFNSMSSGVKKEFGHEFDLYENKDYIRACIIGKGRSYKGTVSITKSGIKCQPWSSMIPHEHSFLPSSYRGKDLQENYCRNPRGEEGGPWCFTSNPEVRYEVCDIPQCSEV", "VALUE REPORTED": 7.08}

Pending binder:
// pKd lookup, binder = wild type NK1 expressed in P. pastoris (Example 7) (ligand, Lietha 2001) YAEGQRKRRNTIHEFKKSAKTTLIKIDPALKIKTKKVNTADQCANRCTRNKGLPFTCKAFVFDKARKQCLWFPFNSMSSGVKKEFGHEFDLYENKDYIRNCIIGKGRSYKGTVSITKSGIKCQPWSSMIPHEHSFLPSSYRGKDLQENYCRNPRGEEGGPWCFTSNPEVRYEVCDIPQCSEV , result: 6.74
